// provenance: the supplement of paper PMC10567573

Quick list: protein stability index per entry.
B1: APBB1IP (parent)
chain: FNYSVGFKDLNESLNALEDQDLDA

Variants of: B1
experiment-summary: protein stability index of a GFP-peptide fusion (GPS, HEK-293T) (PSI 1-6); higher = more stable;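 also: lentivirally expressed fusions sorted by FACS into six bins by GFP to DsRed ratio, PSI derived from sequencing read proportions per bin multiplied by bin number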
condition-summary: c terminus: a fixed tail appended

- sequence-text: "FNYSVGGKDLNESLNALEDQDLDA [F7G]"
  protein stability index: 5.22

Lab note: FNYSVGFKDLNESLNALEDQDRDA [L22R] gave protein stability index of 4.5

protein stability index reading for FNYSVGWKDLNESLNALEDQDLDA [F7W] : 3.9

The recorded protein stability index for entry FNYSVGFKDLNESLNALEDQDQDA [L22Q] equals 4.67

Item: FNYSVGFKDLNESINALEDQDLDA [L14I] | protein stability index: 4.71

Please fill in: protein stability index reported for FNYSVGFKDLNESLNALEDQDLDS [A24S] = 4.59
